Every entry's value here was drawn from ChEMBL document CHEMBL5233275.

# Procedure details: Solubility of the compound by high-throughput equilibrium solubility assay
# Format: physicochemical
Where a SMILES comes first, the peptide text is derived from it. [ ]: non-standard residue; d: D form. NMeA = CN[C@@H](C)C(=O)O; Sar = CNCC(=O)O
// values below are reported solubility thermodynamic

Compound | solubility thermodynamic
CC(C)C[C@@H]1NC(=O)[C@H]([C@@H](C)O)N(C)C(=O)[C@H]2CCCN2C(=O)[C@H](CC(C)C)NC(=O)[C@H]([C@@H](C)O)N(C)C(=O)[C@H](CC(C)C)NC(=O)[C@H]([C@@H](C)O)N(C)C(=O)[C@H]2CCCN2C(=O)[C@H](CC(C)C)NC(=O)[C@H]([C@@H](C)O)N(C)C1=O | > 1000 µM

Reported solubility thermodynamic of CC(C)C[C@@H]1NC(=O)[C@H](C)N(C)C(=O)[C@H](CC(C)C)NC(=O)[C@@H]2CCCN2C(=O)CN(C)C(=O)[C@H](CC(C)C)NC(=O)[C@H](C)N(C)C(=O)[C@H](CC(C)C)NC(=O)[C@@H]2CCCN2C(=O)CN(C)C1=O (cyclo(L[NMeA]L[Sar]PL[NMeA]L[Sar]P)) : > 1000 µM
